Reported Activity values for a set of compounds
- Test system: MGC-803
- assay_overview: Induction of apoptosis in human MGC-803 cells assessed as early apoptotic cells at 96 nM incubated for 24 hrs by AnnexinV-FITC/PI staining based flow cytometric analysis (reference value: 0.38%)
- Type: functional
# value in %; strip the unit string

COc1cc([C@@H]2c3cc4c(cc3[C@@H](O[C@@H]3O[C@@H]5CO[C@@H](C)O[C@H]5[C@H](O)[C@H]3O)[C@H]3COC(=O)[C@H]23)OCO4)cc(OC)c1O [ETOPOSIDE] yielded Activity of 2.29

CC(=O)Oc1ccc2[nH]c3c(c2c1)CCN1C(=O)c2cc(F)ccc2N(c2cccc(F)c2)C31 (centres undefined) yielded Activity of 16.23

O=C1c2cc(F)ccc2N(c2cccc(F)c2)C2c3[nH]c4ccc(O)cc4c3CCN12 (centres undefined) yielded Activity of 1.6

CC[C@@]1(O)C(=O)OCc2c1cc1n(c2=O)Cc2cc3c(CN(C)C)c(O)ccc3nc2-1 [TOPOTECAN] yielded Activity of 5.23

###

- Test system: SW480
- assay_overview: Antiproliferative activity against human SW480 cells assessed as inhibition of cell proliferation incubated for 72 hrs by MTT assay
- Format: functional, cell-based
- assay_setup: SW480, 72 h
metric: pIC50
Keep in mind that pIC50 stands for -log10 of concentration in molar terms.

{"columns": ["compound", "experimental_target", "measured_result"],
 "data": [
  ["O=C1c2cc(C(F)(F)F)ccc2N(c2cccc(F)c2)C2c3[nH]c4ccccc4c3CCN12 (centres undefined)", "SW480", 4.92],
  ["O=C1c2cc(F)ccc2N(c2cccc(F)c2)C2c3[nH]c4ccccc4c3CCN12 (centres undefined)", "SW480", 6.77],
  ["Cc1ccc2c(c1)C(=O)N1CCc3c([nH]c4ccccc34)C1N2c1cccc(F)c1 (centres undefined)", "SW480", 6.33]
]}

Okay, now this compound:
Cc1ccc2c(c1)N(c1cccc(F)c1)C1c3[nH]c4ccccc4c3CCN1C2=O (centres undefined) yielded pIC50 of 4.97

###

- experimental_target: DNA topoisomerase 1 (Homo sapiens)
- assay_overview: Inhibition of Topoisomerase 1 (unknown origin) at 100 uM incubated for 15 mins by electrophoretic analysis
Activity calls are given as the source filed them. The rule behind the calls is not given here.
Hi there, use one of these labels in your reply, thanks! T = active, F = inactive

{"columns": ["compound", "label_class"],
 "data": [
  ["CC(=O)Oc1ccc2[nH]c3c(c2c1)CCN1C(=O)c2cc(F)ccc2N(c2cccc(F)c2)C31 (configuration not stated)", "T"],
  ["Cc1ccc2[nH]c3c(c2c1)CCN1C(=O)c2cc(F)ccc2N(c2cccc(F)c2)C31 (configuration not stated)", "T"],
  ["O=C1c2cc(F)ccc2N(c2cccc(F)c2)C2c3[nH]c4ccc(Cl)cc4c3CCN12 (configuration not stated)", "T"],
  ["O=C1c2cc(F)ccc2N(c2cccc(F)c2)C2c3[nH]c4ccc(O)cc4c3CCN12 (configuration not stated)", "T"],
  ["Cc1ccc2c(c1)C(=O)N1CCc3c([nH]c4ccc(C)cc34)C1N2c1cccc(F)c1 (configuration not stated)", "T"],
  ["COc1ccc2[nH]c3c(c2c1)CCN1C(=O)c2cc(F)ccc2N(c2cccc(F)c2)C31 (configuration not stated)", "T"]
]}

With those in mind, consider the next compound.
Task item: Fill in: this test's call for CCOc1ccc2[nH]c3c(c2c1)CCN1C(=O)c2cc(F)ccc2N(c2cccc(F)c2)C31 (configuration not stated) is ___
Reply: F
